Measured CTG-3D luminescence at 96 h by item
system: HCI-024 (organoid from a breast cancer xenograft); assay: CTG-3D luminescence at 96 h relative to day-0 seeding control (ratio to day 0); higher = more growth / less cytotoxicity; PDxO 3D drug screen (set 2), 96 h, CTG-3D normalised to day-0 seeding control.; conditions: 625 fM; days in culture: 231
measured.parameter: CTG-3D luminescence at 96 h

[
  {
    "compound": "COc1cccc2c1C(=O)c1c(O)c3c(c(O)c1C2=O)C[C@@](O)(C(=O)CO)C[C@@H]3O[C@H]1C[C@H](N)[C@@H](O)[C@H](C)O1 [epirubicin]",
    "target.or.test.system": "HCI-024",
    "measured.number": 1.79
  },
  {
    "compound": "C[C@@H](Nc1cc(F)cc(F)c1)c1cc(C(=O)N(C)C)cc2c(=O)cc(N3CCOCC3)oc12 [AZD-8186]",
    "target.or.test.system": "HCI-024",
    "measured.number": 1.35
  },
  {
    "compound": "CC(C)n1nc(-c2ccc3oc(N)nc3c2)c2c(N)ncnc21 [sapanisertib]",
    "target.or.test.system": "HCI-024",
    "measured.number": 0.868
  },
  {
    "compound": "CO[C@H]1C[C@@H]2CC[C@@H](C)[C@@](O)(O2)C(=O)C(=O)N2CCCC[C@H]2C(=O)O[C@H]([C@H](C)C[C@@H]2CC[C@@H](OCCO)[C@H](OC)C2)CC(=O)[C@H](C)/C=C(\\C)[C@@H](O)[C@@H](OC)C(=O)[C@H](C)C[C@H](C)/C=C/C=C/C=C/1C [everolimus]",
    "target.or.test.system": "HCI-024",
    "measured.number": 0.943
  }
]

---

system: HCI-005.E2 (organoid from a breast cancer xenograft with a HER2-positive history); experiment: CTG-3D luminescence at 96 h relative to day-0 seeding control (ratio to day 0); higher = more growth / less cytotoxicity; PDxO 3D drug screen, 96 h, CTG-3D normalised to day-0 seeding control.; details: 625 fM
measured.parameter: CTG-3D luminescence at 96 h

[
  {
    "molecule": "CN(Cc1cnc2nc(N)nc(N)c2n1)c1ccc(C(=O)N[C@@H](CCC(=O)O)C(=O)O)cc1 [methotrexate]",
    "measured.number": 2.1
  },
  {
    "molecule": "C=CC(=O)N1CCC[C@@H](n2nc(-c3ccc(Oc4ccccc4)cc3)c3c(N)ncnc32)C1",
    "measured.number": 1.61
  },
  {
    "molecule": "Cc1nc(-c2cn3c(n2)-c2ccc(-c4cnn(C(C)(C)C(N)=O)c4)cc2OCC3)n(C(C)C)n1",
    "measured.number": 2.12
  },
  {
    "molecule": "C=CCn1c(=O)c2cnc(Nc3ccc(N4CCN(C)CC4)cc3)nc2n1-c1cccc(C(C)(C)O)n1",
    "measured.number": 1.73
  },
  {
    "molecule": "C[C@]12CC[C@@H]3c4ccc(O)cc4C[C@@H](CCCCCCCCC[S+]([O-])CCCC(F)(F)C(F)(F)F)[C@H]3[C@@H]1CC[C@@H]2O (stereo not given in full)",
    "measured.number": 1.72
  },
  {
    "molecule": "O=C(/C=C/c1cccnc1)NCCCCC1CCN(C(=O)c2ccccc2)CC1",
    "measured.number": 1.93
  },
  {
    "molecule": "CC(C)n1nc(-c2ccc3oc(N)nc3c2)c2c(N)ncnc21",
    "measured.number": 1.56
  },
  {
    "molecule": "C[C@@H]1COCCN1c1cc(C2([S@](C)(=N)=O)CC2)nc(-c2cc[nH]c3nccc2-3)n1",
    "measured.number": 1.78
  },
  {
    "molecule": "CS(=O)(=O)c1ccc(C(=O)Nc2ccc(Cl)c(-c3ccccn3)c2)c(Cl)c1",
    "measured.number": 1.47
  },
  {
    "molecule": "CCN1CCN(Cc2ccc(Nc3ncc(F)c(-c4cc(F)c5nc(C)n(C(C)C)c5c4)n3)nc2)CC1",
    "measured.number": 2.12
  }
]
